- Test system: K562
- PROTOCOL_DESCRIPTION: Induction of DNA damage in human K562 cells assessed as increase in gammaH2AX at 1 to 5 uM for 2 hrs by Western blotting analysis
- Assay type: functional, cell-based
- TEST_SETTINGS: dose 1-5 µM
Active and inactive are the calls of the source. No cut-off for these calls is given here.
ASSAY_METRIC: Activity

// worked examples, Activity included
>>> assay_result("COc1cccc2c1C(=O)c1c(O)c3c(c(O)c1C2=O)C[C@@](O)(C(=O)CO)C[C@@H]3O[C@H]1CC[C@H](O)[C@H](C)O1")
"Active"
>>> assay_result("CC[C@]1(O)Cc2c(O)c3c(c(O)c2[C@@H](O[C@H]2C[C@H](N(C)C)[C@H](O)[C@H](C)O2)C1)C(=O)c1c(OC)cccc1C3=O")
"inactive"
>>> assay_result("COc1cccc2c1C(=O)c1c(O)c3c(c(O)c1C2=O)C[C@@](O)(CCO)C[C@@H]3O[C@H]1C[C@H](N)[C@H](O)[C@H](C)O1")
"Active"
>>> assay_result("CC[C@@]1(O)C[C@H](O[C@H]2C[C@H](N(C)C)[C@H](O[C@H]3C[C@H](O)[C@H](O[C@H]4CCC(=O)[C@H](C)O4)[C@H](C)O3)[C@H](C)O2)c2c(cc3c(c2O)C(=O)c2c(O)cccc2C3=O)[C@H]1C(=O)OC")
"inactive"

Could you now consider this next compound?
Problem: I am curious: what Activity value has been reported for `COc1cccc2c1C(=O)c1c(O)c3c(c(O)c1C2=O)C[C@@](O)(C(=O)CO)C[C@@H]3O[C@H]1C[C@H](N2CCCCC2)[C@H](O)[C@H](C)O1` ?
Solution: inactive

* * *

- Test system: K562
- PROTOCOL_DESCRIPTION: Induction of DNA damage in human K562 cells assessed as increase in gammaH2AX at 1 to 5 uM for 2 hrs by Western blotting analysis
- Assay type: functional, cell-based
- TEST_SETTINGS: dose 1-5 µM
The source made the active and inactive calls. The rule behind the calls is not given here.
Select the correct class. Options are T (active), F (inactive) and nothing else.

>>> label("CC(=O)[C@]1(O)Cc2c(O)c3c(c(O)c2[C@@H](O[C@H]2C[C@H](N)[C@H](O[C@H]4C[C@H](O)[C@H](O[C@H]5CCC(=O)[C@H](C)O5)[C@H](C)O4)[C@H](C)O2)C1)C(=O)c1ccccc1C3=O")
"T"

Problem: Query: recorded result category for `COc1cccc2c1C(=O)c1c(O)c3c(c(O)c1C2=O)C[C@@](O)(C(=O)CO)C[C@@H]3O[C@H]1C[C@H](N=[N+]=[N-])[C@H](O)[C@H](C)O1` in this test
Solution: T

Problem: Okay, and `CC[C@@]1(O)C[C@H](O[C@H]2C[C@H](N(C)C)[C@H](O)[C@H](C)O2)c2c(O)c3c(c(O)c2[C@H]1C(=O)OC)C(=O)c1cccc(O)c1C3=O` ?
Solution: F

Problem: Check `COc1cccc2c1C(=O)c1c(O)c3c(c(O)c1C2=O)C[C@@](O)(C(=O)CO)C[C@@H]3O[C@H]1C[C@H](N2CCOCC2)[C@H](O)[C@H](C)O1` too.
Solution: F

Problem: Further, for `CC[C@@]1(O)C[C@H](O[C@H]2C[C@H](N)[C@H](O)[C@H](C)O2)c2c(O)c3c(c(O)c2[C@H]1C(=O)OC)C(=O)c1cccc(O)c1C3=O` ?
Solution: T
